system: A431; assay: Dose-dependent change in panel protein levels by western blot; assay type: cell-based, human; details: dose-dependent, 16 h, western blot; further: key: (+) for increase; (−) for decrease; N.C.: (N.C) for no change; (~) for not detected
observed property: TESTICAN2 protein level change

[
  {
    "molecule": "C#Cc1cccc(Nc2ncnc3cc(OCCOC)c(OCCOC)cc23)c1",
    "reported value": "+"
  },
  {
    "molecule": "CC(=O)O[C@H]1C(=O)[C@@]2(C)[C@H]([C@H](OC(=O)c3ccccc3)[C@]3(O)C[C@H](OC(=O)[C@H](O)[C@@H](NC(=O)c4ccccc4)c4ccccc4)C(C)=C1C3(C)C)[C@]1(OC(C)=O)CO[C@@H]1C[C@@H]2O",
    "reported value": "N.C."
  },
  {
    "molecule": "COc1cccc(-c2cc(=O)c3ccccc3o2)c1N",
    "reported value": "+"
  },
  {
    "molecule": "O=c1[nH]c2ccccc2n1C1CCN(Cc2ccc(-c3nc4cc5[nH]cnc5cc4nc3-c3ccccc3)cc2)CC1",
    "reported value": "N.C."
  },
  {
    "molecule": "COc1cc2ncnc(Nc3ccc(F)c(Cl)c3)c2cc1OCCCN1CCOCC1",
    "reported value": "+"
  }
]

---

tested on: A431; test: Dose-dependent change in panel protein levels by western blot; assay type: cell-based, human; details: dose-dependent, 16 h, western blot; further: key: (+) for increase; (−) for decrease; N.C.: (N.C) for no change; (~) for not detected

[
  {
    "molecule": "CC(=O)O[C@H]1C(=O)[C@@]2(C)[C@H]([C@H](OC(=O)c3ccccc3)[C@]3(O)C[C@H](OC(=O)[C@H](O)[C@@H](NC(=O)c4ccccc4)c4ccccc4)C(C)=C1C3(C)C)[C@]1(OC(C)=O)CO[C@@H]1C[C@@H]2O",
    "target system": "A431",
    "SNX5 protein level change": "N.C."
  },
  {
    "molecule": "O=c1[nH]c2ccccc2n1C1CCN(Cc2ccc(-c3nc4cc5[nH]cnc5cc4nc3-c3ccccc3)cc2)CC1",
    "target system": "A431",
    "SNX5 protein level change": "N.C."
  },
  {
    "molecule": "C#Cc1cccc(Nc2ncnc3cc(OCCOC)c(OCCOC)cc23)c1",
    "target system": "A431",
    "SNX5 protein level change": "−"
  },
  {
    "molecule": "COc1cccc(-c2cc(=O)c3ccccc3o2)c1N",
    "target system": "A431",
    "SNX5 protein level change": "N.C."
  },
  {
    "molecule": "COc1cc2ncnc(Nc3ccc(F)c(Cl)c3)c2cc1OCCCN1CCOCC1",
    "target system": "A431",
    "SNX5 protein level change": "−"
  }
]

---

tested on: A431; assay: Dose-dependent change in panel protein levels by western blot; assay type: cell-based, human; settings: dose-dependent, 16 h, western blot; further: key: (+) for increase; (−) for decrease; N.C.: (N.C) for no change; (~) for not detected
observed property: HSPG2 protein level change

[
  {
    "compound": "C#Cc1cccc(Nc2ncnc3cc(OCCOC)c(OCCOC)cc23)c1 [erlotinib]",
    "reported value": "+"
  },
  {
    "compound": "COc1cccc(-c2cc(=O)c3ccccc3o2)c1N [PD98059]",
    "reported value": "N.C."
  },
  {
    "compound": "O=c1[nH]c2ccccc2n1C1CCN(Cc2ccc(-c3nc4cc5[nH]cnc5cc4nc3-c3ccccc3)cc2)CC1 [A6730]",
    "reported value": "N.C."
  },
  {
    "compound": "CC(=O)O[C@H]1C(=O)[C@@]2(C)[C@H]([C@H](OC(=O)c3ccccc3)[C@]3(O)C[C@H](OC(=O)[C@H](O)[C@@H](NC(=O)c4ccccc4)c4ccccc4)C(C)=C1C3(C)C)[C@]1(OC(C)=O)CO[C@@H]1C[C@@H]2O [paclitaxel]",
    "reported value": "N.C."
  },
  {
    "compound": "COc1cc2ncnc(Nc3ccc(F)c(Cl)c3)c2cc1OCCCN1CCOCC1 [gefitinib]",
    "reported value": "+"
  }
]
